testDetails: Metabolic stability in human liver microsomes
Type: in vitro ADME
measureName: Predicted Fmax [%] (maximum oral bioavailability) Human (%)

Previously resolved entries follow.
| compound | unitsText | readoutValue |
| --- | --- | --- |
| C[C@]12C[C@H](c3cccc(/C=C/c4ccccn4)c3)C3=C4CCC(=O)C=C4CC[C@H]3[C@@H]1CC[C@@]2(O)C(F)(F)C(F)(F)F [Example 21] | % | 48 |
| C[C@]12C[C@H](c3ccc(/C=C/CO)cc3)C3=C4CCC(=O)C=C4CC[C@H]3[C@@H]1CC[C@@]2(O)C(F)(F)C(F)(F)F [Example 2] | % | 69 |
| C[C@]12C[C@H](c3ccc(/C=C/c4cccc(C(=O)O)c4)cc3)C3=C4CCC(=O)C=C4CC[C@H]3[C@@H]1CC[C@@]2(O)C(F)(F)C(F)(F)F [Example 28] | % | 74 |
| Cc1nc2cc(/C=C/c3ccc([C@H]4C[C@@]5(C)[C@@H](CC[C@@]5(O)C(F)(F)C(F)(F)F)[C@@H]5CCC6=CC(=O)CCC6=C54)cc3)ccc2s1 [Example 10] | % | 73 |

P: CCO/N=C/c1ccc([C@H]2C[C@@]3(C)[C@@H](CC[C@@]3(O)C(F)(F)C(F)(F)F)[C@@H]3CCC4=CC(=O)CCC4=C32)cc1 [Example 36]
Q: C[C@]12C[C@H](c3ccc(/C=C/C=C/C(=O)O)cc3)C3=C4CCC(=O)C=C4CC[C@H]3[C@@H]1CC[C@@]2(O)C(F)(F)C(F)(F)F [Example 17]
Higher Predicted Fmax [%] (maximum oral bioavailability) Human: P or Q ? Write down the label of the entry you select.
P
(P: 72%, Q: 33%)

---

testDetails: Metabolic stability in rat liver microsomes
Assay type: in vitro ADME
conditionDetails: well-stirred model
Protocol: Determination of Metabolic Stability in Human and Rat Liver Microsomes The incubations were conducted with 2.4 ml of HLM solution (protein content 0.5 mg/ml), 30 μl of the test compound (final concentration 1 μM) and 0.6 ml of the cofactor mixture (═NADPH-generating system composed of 3 IU glucose-6-phosphate dehydrogenase, 14.6 mg glucose-6-phosphate, 1.2 mg NADP) at 37° C. in 100 mM phosphate buffer at pH 7.4. […]
measureName: Predicted clearance [l/h/kg] Rat (L/h/kg)

Previously resolved entries follow.
| compound | Predicted clearance [l/h/kg] Rat [L/h/kg] |
| --- | --- |
| CCO/N=C/c1ccc([C@H]2C[C@@]3(C)[C@@H](CC[C@@]3(O)C(F)(F)C(F)(F)F)[C@@H]3CCC4=CC(=O)CCC4=C32)cc1 [Example 36] | 0.8 |
| C[C@]12C[C@H](c3ccc(/C=C/CC(C(=O)O)C(=O)O)cc3)C3=C4CCC(=O)C=C4CC[C@H]3[C@@H]1CC[C@@]2(O)C(F)(F)C(F)(F)F [Example 5] | 0.5 |
| C=Cc1ccc([C@H]2C[C@@]3(C)[C@@H](CC[C@@]3(O)C(F)(F)C(F)(F)F)[C@@H]3CCC4=CC(=O)CCC4=C32)cc1 [Example 1] | 1.9 |
| C[C@]12C[C@H](c3ccc(/C=C/C=C/C(=O)O)cc3)C3=C4CCC(=O)C=C4CC[C@H]3[C@@H]1CC[C@@]2(O)C(F)(F)C(F)(F)F [Example 17] | 0.4 |
| C[C@]12C[C@H](c3cccc(/C=C/c4ccccn4)c3)C3=C4CCC(=O)C=C4CC[C@H]3[C@@H]1CC[C@@]2(O)C(F)(F)C(F)(F)F [Example 21] | 0.5 |

1: C[C@]12C[C@H](c3ccc(/C=C/CC(C#N)C#N)cc3)C3=C4CCC(=O)C=C4CCC3C1CC[C@@]2(O)C(F)(F)C(F)(F)F (some centres unmarked) [Example 27]
2: C[C@]12C[C@H](c3ccc(/C=C/C(=O)O)cc3)C3=C4CCC(=O)C=C4CC[C@H]3[C@@H]1CC[C@@]2(O)C(F)(F)C(F)(F)F [Example 13]
3: CC(=O)/C=C/c1ccc([C@H]2C[C@@]3(C)[C@@H](CC[C@@]3(O)C(F)(F)C(F)(F)F)[C@@H]3CCC4=CC(=O)CCC4=C32)cc1 [Example 16]
Given 3 compounds, produce a descending ranking by Predicted clearance [l/h/kg] Rat. Output the labels ranked as instructed.
3, 1, 2

P: C[C@]12C[C@H](c3ccc(CO)cc3)C3=C4CCC(=O)C=C4CC[C@H]3[C@@H]1CC[C@@]2(O)C(F)(F)C(F)(F)F [Ref. 1, reference compound]
Q: C[C@]12C[C@H](c3ccc(/C=C/c4cccc(C(=O)O)c4)cc3)C3=C4CCC(=O)C=C4CC[C@H]3[C@@H]1CC[C@@]2(O)C(F)(F)C(F)(F)F [Example 28]
Please let me know which one, P or Q , has a lower measured Predicted clearance [l/h/kg] Rat value. Write down the label of the entry you select.
Q
(Q: 0.1 L/h/kg, P: 0.8 L/h/kg)

P: Cc1nc(/C=C/c2ccc([C@H]3C[C@@]4(C)[C@@H](CC[C@@]4(O)C(F)(F)C(F)(F)F)[C@@H]4CCC5=CC(=O)CCC5=C43)cc2)cs1 [Example 9]
Q: C[C@]12C[C@H](c3ccc(/C=C/c4ccccn4)cc3)C3=C4CCC(=O)C=C4CC[C@H]3[C@@H]1CC[C@@]2(O)C(F)(F)C(F)(F)F [Example 6]
R: C[C@]12C[C@H](c3ccc(/C=C/c4ccncc4)cc3)C3=C4CCC(=O)C=C4CC[C@H]3[C@@H]1CC[C@@]2(O)C(F)(F)C(F)(F)F [Example 8]
S: C[C@]12C[C@H](c3ccc(/C=C/c4ccc(C(=O)O)cc4)cc3)C3=C4CCC(=O)C=C4CC[C@H]3[C@@H]1CC[C@@]2(O)C(F)(F)C(F)(F)F [Example 29]
Given 4 compounds, produce a descending ranking by Predicted clearance [l/h/kg] Rat. Output the labels ranked as instructed.
P, Q, R, S
(P: 1.0 L/h/kg, Q: 0.7 L/h/kg, R: 0.3 L/h/kg, S: 0.0 L/h/kg)
